The measurements presented in this section are drawn from patent US20240218057A1.

- target.under.test: T1, SARS-COV-2 RBD (SARS-COV-2, UniProt P0DTC2 319-539)
- T1 construct: also called WT RBD
- assay.text: ELISA, RBD coated on plate
property.measured: EC50 (ng/mL)
Numeric only. Scale: ng/mL

INSERT INTO measurements (binder, recorded_measurement) VALUES
  ('C938 (antibody, V domains shown) VH: QVQLVESGGGVVQPGRSLRLSCAASGFTFRSHAMHWVRQAPGKGLEWVAIISSDGFNKYYADSVKGRFTISRDNSKNTLYVHMNSLRVEDTAIYYCASGLLWFETREISGAPDYGMAVWGQGATVTVSS VL: DIQMTQSPSSLSASVGDRVTITCRASQNISNFLNWYQQKPGKAPKLLIYAASSLQSGVPSRYSGSGSGTDFTLTISSLQAEDFATYYCQQSYSTPLTFGGGTKVEIK', 2.63),
  ('C914 (antibody, V domains shown) VH: QVQLQESGPGLVKPSQTLSLTCTVSGGSITSGDYYWTWIRQPPGKGLEWIGYIYYSGNTYYNLSLRSRITISEDTSKNQFSLKLRSVTAADTAVYYCARAMITFGGVIVVLDYWGQGTLVTVSS VL: QSALTQPPSASGSPGQSVTISCTGTSTDVGGYNFVSWYQQHPGKAPKLMIYEVSKRPSGVPDRFSGSKSGNTASLTVSGLQAEDEADYYCSSYAGSNILYVFGTGTKVTVL', 1.59);

Kindly review the next binder as well.
Supply measured EC50 of C1061 (antibody, V domains shown) VH: EVQLVESGGGLVQPGGSLRLSCAASGFTFSRYDMHWVRQGTGKGLEWVSAIGTSGDTYYPDSVKGRFTISRENAKNSLYLQMNSLRAGDTAVYYCARGGLQTTTWLFDYWGQGTLVTVSS VL: DIQMTQSPSSLSASVGDRVTITCRASQSISRYLNWYQQKPGKAPKLLIYAASSLQSGVPSRFSGSGAGTDFTLTISSLQPEDFAIYYCQQSYSNPPITFGQGTRLEIK in your reply.
2.26
